Provenance of the data: PubChem BioAssay (NCATS)

# experimental details: qHTS of pediatric cancer cell lines to identify multiple opportunities for drug repurposing: Primary screen for RD cells (AID 1347104); further: nearly all actives have a fitted effect of over 55% in size
# cond: RD rhabdomyosarcoma viability, CellTiter-Glo luminescence, 48 h; series mostly up to 46 µM
Inconclusive results are not listed. Active and inactive are the calls of the source. The call rests on the fitted dose curve; in most records, active means well fitted cell-killing curve with a large enough effect; inconclusive means small, poorly fitted or top-dose-only effect; inactive means flat fitted curve, though single readings scatter.
Please state which outcome applies, choosing from label 1 (active), label 0 (inactive)

As a guide, the following entries are already answered.
CCN(CC)CCCC(C)Nc1c2ccc(Cl)cc2nc2ccc(OC)cc12 (centres undefined): label 1
CC1CC(OC(=O)C(O)c2ccccc2)CC(C)(C)N1C (centres undefined): label 0
O=c1cc[nH]c(=O)[nH]1: label 0
CC(=O)Oc1ccc(C2(c3ccc(OC(C)=O)cc3)C(=O)Nc3ccccc32)cc1: label 0
NC(=O)c1ncn([C@@H]2O[C@H](CO)[C@@H](O)[C@H]2O)n1: label 0
Cc1c(Cl)cccc1Nc1ccccc1C(=O)O: label 0
O=Cc1ccccc1C=O: label 0
CCCc1c(OCCCCc2nn[nH]n2)ccc(C(C)=O)c1O: label 0

Lookup: Short answer needed: outcome of this test for NS(=O)(=O)c1cc2c(cc1Cl)NC(CSCc1ccccc1)=NS2(=O)=O ?
Found: label 0

Lookup: Short answer needed: outcome of this test for CCCCCCCCCCCCOS(=O)(=O)O ?
Found: label 0
